Quick reference for TGI among some compounds
System: COLO 205 colon
Experiment: NCI tumour cell line growth inhibition, 48 h
OBSERVED PROPERTY: TGI

| COMPOUND | TARGET OR TEST SYSTEM | OBSERVED PROPERTY | MEASURED VALUE |
| --- | --- | --- | --- |
| C/C=C/C(C#N)O[Si](C)(C)C (configuration not stated) | COLO 205 colon | TGI | > 100 µM |
| CCN1C(=O)N(CC)C2C1NN=c1s/c(=C\c3ccc(Cl)cc3Cl)c(=O)n12 (configuration not stated) | COLO 205 colon | TGI | 0.0748 µM |
| C1CSCCCSCCCSCCCSCCCSCCCSCCCSCCCSC1 | COLO 205 colon | TGI | > 100 µM |
| C1=C(c2ccccc2)SC(N2CCCCC2)S1 (configuration not stated) | COLO 205 colon | TGI | > 100 µM |
| IC[P+]1(c2ccccc2)CCCC1 | COLO 205 colon | TGI | 31 µM |
| Clc1ccc(-c2cn3ccnc3c(-c3ccc(Cl)cc3)n2)cc1 | COLO 205 colon | TGI | > 100 µM |
| COC(=O)C1=C(O)C(C(=O)OC)C2CC(=O)CC1C2(C)C (configuration not stated) | COLO 205 colon | TGI | > 100 µM |
